Reference for the values: ChEMBL document CHEMBL3525918

test: Apparent intrinsic clearance in Sprague-Dawley rat hepatocytes assessed per 10^6 cells at 0.1 to 10 uM up to 90 mins by media-loss method; assay type: ADME, cell-based, Hepatocyte; conditions: Sprague-Dawley, read-out: CLH(app)
OUTCOME MEASURE: hepatocyte CLint at up to 10 µM (µL/min/1e6 cells)

* CC[C@H]1OC(=O)[C@H](C)[C@@H](O[C@H]2C[C@@](C)(OC)[C@@H](O)[C@H](C)O2)[C@H](C)[C@@H](O[C@@H]2O[C@H](C)C[C@H](N(C)C)[C@H]2O)[C@](C)(O)C[C@@H](C)C(=O)[C@H](C)[C@@H](O)[C@]1(C)O [ERYTHROMYCIN] | 35
* CC[C@H]1OC(=O)[C@H](C)[C@@H](O[C@H]2C[C@@](C)(OC)[C@@H](O)[C@H](C)O2)[C@H](C)[C@@H](O[C@@H]2O[C@H](C)C[C@H](N(C)C)[C@H]2O)[C@](C)(OC)C[C@@H](C)C(=O)[C@H](C)[C@@H](O)[C@]1(C)O [CLARITHROMYCIN] | 68

P. CC(C)c1nc(N(C)S(C)(=O)=O)nc(-c2ccc(F)cc2)c1/C=C/[C@@H](O)C[C@@H](O)CC(=O)O [ROSUVASTATIN]
Q. CCOc1cc(CC(=O)N[C@@H](CC(C)C)c2ccccc2N2CCCCC2)ccc1C(=O)O [REPAGLINIDE]
When the recorded hepatocyte CLint at up to 10 µM values are compared, which is smaller: that of P or that of Q ? Bench note: the answer is the label of the chosen record.
Q

====

test: Drug metabolism in Sprague-Dawley rat hepatocytes assessed per 10^6 cells at 0.1 to 10 uM up to 90 mins by media-loss method; type: ADME, cell-based, Hepatocyte
OUTCOME MEASURE: Km at 1.5 h, up to 10 µM (µM)

I. CC[C@H]1OC(=O)[C@H](C)[C@@H](O[C@H]2C[C@@](C)(OC)[C@@H](O)[C@H](C)O2)[C@H](C)[C@@H](O[C@@H]2O[C@H](C)C[C@H](N(C)C)[C@H]2O)[C@](C)(O)C[C@@H](C)C(=O)[C@H](C)[C@@H](O)[C@]1(C)O
II. O=C(O)C[C@H](O)C[C@H](O)/C=C/c1c(C2CC2)nc2ccccc2c1-c1ccc(F)cc1
III. CC(C)c1c(C(=O)Nc2ccccc2)c(-c2ccccc2)c(-c2ccc(F)cc2)n1CC[C@@H](O)C[C@@H](O)CC(=O)O
Quick favor: sort the compounds up above by Km at 1.5 h, up to 10 µM, largest first. The labels, placed in the requested order, form the answer.
II, I, III
